- Measurement target: hNHE3 (Homo sapiens, UniProt P48764)
- Sequence (P48764 26-834): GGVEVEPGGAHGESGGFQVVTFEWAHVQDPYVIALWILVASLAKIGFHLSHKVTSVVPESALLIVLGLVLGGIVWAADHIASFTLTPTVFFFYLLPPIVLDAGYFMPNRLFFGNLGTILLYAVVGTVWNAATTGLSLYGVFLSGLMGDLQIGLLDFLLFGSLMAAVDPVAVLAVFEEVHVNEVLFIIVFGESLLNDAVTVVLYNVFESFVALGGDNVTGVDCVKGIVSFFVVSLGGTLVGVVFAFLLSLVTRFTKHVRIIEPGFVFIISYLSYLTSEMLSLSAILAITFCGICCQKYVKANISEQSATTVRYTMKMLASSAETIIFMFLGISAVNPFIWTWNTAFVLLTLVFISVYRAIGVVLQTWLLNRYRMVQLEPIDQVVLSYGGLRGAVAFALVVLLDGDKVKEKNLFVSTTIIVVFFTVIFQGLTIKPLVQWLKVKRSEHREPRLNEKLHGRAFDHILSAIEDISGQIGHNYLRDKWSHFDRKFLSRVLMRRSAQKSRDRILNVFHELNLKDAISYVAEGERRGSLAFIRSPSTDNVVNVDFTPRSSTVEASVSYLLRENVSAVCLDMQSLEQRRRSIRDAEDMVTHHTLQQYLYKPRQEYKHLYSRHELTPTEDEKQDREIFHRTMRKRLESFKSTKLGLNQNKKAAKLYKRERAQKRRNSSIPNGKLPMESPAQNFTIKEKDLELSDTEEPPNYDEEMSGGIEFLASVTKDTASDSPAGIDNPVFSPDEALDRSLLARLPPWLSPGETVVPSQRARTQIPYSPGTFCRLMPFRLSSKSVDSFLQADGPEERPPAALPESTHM
- Test: recovery of intracellular pH (pHi) after acidification, BCECF fluorescence, hNHE3
- Conditions used: pH recovery recorded for three minutes
Structures can show the parent of a compound that is named as a salt.
Measured metric: IC50 (nM)

Clc1cscc1NC1=N[C@H]2CCCC[C@@H]2N1 [Example 60, Hydrochloride] | 190
Cc1csc(Cl)c1Nc1nc2c(O)cccc2[nH]1 [Example 38, hydrochloride] | 840
Cc1csc(Br)c1NC1=N[C@@H]2CCCC[C@H]2N1 [Example 19, hydrochloride] | 560

[a] Cc1csc(Cl)c1Nc1nc2cc(F)ccc2[nH]1 [Example 2, hydrochloride]
[b] Fc1ccc2[nH]c(Nc3c(Cl)csc3Cl)nc2c1
Which shows the larger IC50 value: a or b ? Reply with the label of the item you choose.
a

---

- Measurement target: hNHE3 (Homo sapiens)
- Construct: host or cells: cells, not specified
- Test: recovery of intracellular pH (pHi) after acidification, BCECF fluorescence, hNHE3
- Type: cell-based
- Conditions used: pH recovery recorded for three minutes
Counter-ions that a name gives are not always drawn.
Measured metric: IC50 (nM)

Sample records with IC50:
Cc1csc(Br)c1Nc1nc2ccccc2[nH]1 [Example 18, hydrochloride] | 120
Cc1csc(Cl)c1N(C)c1nc2ccccc2[nH]1 | 1590
Fc1cc2nc(Nc3c(Cl)csc3Cl)[nH]c2cc1F | 220

[A] Clc1csc(Cl)c1NC1=N[C@@H]2CCCC[C@H]2N1 [Example 63, Hydrochloride]
[B] Clc1csc(Br)c1Nc1nc2ccccc2[nH]1 [Example 53, hydrochloride]
Which shows the larger IC50 value: A or B ? Reply with the label of the item you choose.
A
